# reported IC50; entries follow
testTarget: Cdk4/CyclinD1 (Homo sapiens)
Sequence (P11802 whole entry): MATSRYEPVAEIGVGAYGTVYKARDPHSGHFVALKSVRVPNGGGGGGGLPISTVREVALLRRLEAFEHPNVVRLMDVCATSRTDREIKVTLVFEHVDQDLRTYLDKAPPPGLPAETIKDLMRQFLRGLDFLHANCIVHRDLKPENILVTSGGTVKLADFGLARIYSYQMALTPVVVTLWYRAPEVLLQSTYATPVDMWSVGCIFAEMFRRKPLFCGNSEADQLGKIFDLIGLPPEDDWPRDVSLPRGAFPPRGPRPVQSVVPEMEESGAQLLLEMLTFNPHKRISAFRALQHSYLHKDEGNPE
Sequence (P24385 whole entry partner): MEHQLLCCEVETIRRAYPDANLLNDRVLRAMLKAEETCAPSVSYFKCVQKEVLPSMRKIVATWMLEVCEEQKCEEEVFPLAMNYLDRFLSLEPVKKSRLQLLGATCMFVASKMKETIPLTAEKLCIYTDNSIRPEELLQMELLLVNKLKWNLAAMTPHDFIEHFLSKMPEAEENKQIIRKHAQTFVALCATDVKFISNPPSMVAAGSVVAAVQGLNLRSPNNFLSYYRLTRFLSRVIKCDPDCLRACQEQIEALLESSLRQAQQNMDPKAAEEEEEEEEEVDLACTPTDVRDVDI
protocolSummary: Cdk4 kinase inhibition assay (33P-ATP filter plate, Rb substrate)
conditionContext: recombinant Cdk4/CyclinD1, Rb substrate, 25 μM ATP, 1 hour room temperature; read-out: Cdk 4 IC50
The figure you give is taken to be in nM; do not add the unit.

A selection of reference data follows.
compound	valueReported
CC1(C)CC2(CCO1)Oc1ncccc1-c1cnc(Nc3ccc(N4CCNCC4)cc3)nc12 (racemic)	77
c1ccc2c(c1)-c1cnc(Nc3ccc(N4CCNCC4)cc3)nc1C21CCNCC1	56.2

OC1CCC2(CC1)Oc1ncccc1-c1cnc(Nc3ccc(N4CCNCC4)cn3)nc12 (mixture of isomers) yielded IC50 of 84

Consider CC1(C)CCc2cnc(Nc3ccc(N4CCNCC4)cc3)nc21 . Its measured IC50 is 668

Value of IC50 reported for the compound CC1(C)C=CC2(CC1)c1cnccc1-c1cnc(Nc3ccc(N4CCNCC4)cc3)nc12 (racemic) is 0.8

Record CC1CC(O)C2(CC=CC2)c2nc(Nc3ccc(N4CCNCC4)cn3)ncc21 (stereo not drawn) , field IC50: 710

* * *

testTarget: Cdk6/CyclinD3 (Homo sapiens)
Sequence (Q00534 whole entry): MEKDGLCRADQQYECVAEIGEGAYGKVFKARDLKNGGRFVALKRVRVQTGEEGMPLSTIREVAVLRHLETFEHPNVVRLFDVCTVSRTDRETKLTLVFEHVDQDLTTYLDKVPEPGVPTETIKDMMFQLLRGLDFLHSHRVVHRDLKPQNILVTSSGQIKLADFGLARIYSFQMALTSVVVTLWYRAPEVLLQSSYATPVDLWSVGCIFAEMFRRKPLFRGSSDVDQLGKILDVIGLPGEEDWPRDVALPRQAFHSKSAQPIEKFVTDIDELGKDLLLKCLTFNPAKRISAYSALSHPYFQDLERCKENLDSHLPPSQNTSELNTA
Sequence (P30281 whole entry partner): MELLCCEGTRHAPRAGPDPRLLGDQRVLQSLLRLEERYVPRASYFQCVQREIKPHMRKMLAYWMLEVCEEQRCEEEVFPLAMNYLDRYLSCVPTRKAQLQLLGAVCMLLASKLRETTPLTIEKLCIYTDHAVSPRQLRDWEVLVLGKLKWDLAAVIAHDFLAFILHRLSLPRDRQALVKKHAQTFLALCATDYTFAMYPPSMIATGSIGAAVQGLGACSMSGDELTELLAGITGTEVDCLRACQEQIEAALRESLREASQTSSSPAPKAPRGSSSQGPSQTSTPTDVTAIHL
protocolSummary: Cdk6 kinase inhibition assay (33P-ATP filter plate, Rb substrate)
conditionContext: recombinant Cdk6/CyclinD3, Rb substrate, 25 μM ATP, 1 hour room temperature; read-out: Cdk 6 IC50
IC50 strictly less than 60 nM = fulfilled. Otherwise not fulfilled.

A selection of reference data follows.
compound	qualitativeLabel
CN1CCN(c2ccc(Nc3ncc4c(n3)C3(CCCCC3)Oc3ccccc3-4)cc2)CC1	fulfilled
c1ccc2c(c1)-c1cnc(Nc3ccc(N4CCNCC4)cc3)nc1C21CCNCC1	not fulfilled
CN(C)C1CCN(c2ccc(Nc3ncc4c(n3)C3(C=CC(C)(C)CC3)c3cnccc3-4)nn2)CC1 (racemic)	not fulfilled
OC1CCC2(CC1)Oc1ncccc1-c1cnc(Nc3ccc(N4CCNCC4)cn3)nc12 (mixture of isomers)	fulfilled

We next turn to a different compound, shown below.
Is the reported IC50 for CS(=O)(=O)c1cccc2c1OC1(CCCCC1)c1nc(Nc3ccc(N4CCNCC4)cn3)ncc1-2 strictly below 60 nM?
not fulfilled
